// data source = paper PMC10877577

molecular target: minocycline; experiment: SPR
The following binders are listed with their measured ratio to parent values.
Please give only the number in your answer, with no unit.

Check out these entries, answers already filled in.
Binder: anti-minocycline single-domain antibody clone 1 (aMinoC1 sdAb) R108A (protein) QVQLESGGGLVQPGSSLRLSCAASGRTFSSYNIGWFRQAPKEREFVAAISWSGARTYYADSVKGRFTISRDNAKNTVYLQMNSLKPEDTAVYSCAAGAGWGTEAILDYWGQGTQVSSA
ratio to parent: 0.88
--
Binder: anti-minocycline single-domain antibody clone 1 (aMinoC1 sdAb) G40A (protein) QVQLESGGGLVQPGSSLRLSCAASGRTFSSYNIAWFRQAPKEREFVAAISWSGARTYYADSVKGRFTISRDNAKNTVYLQMNSLKPEDTAVYSCAAGRGWGTEAILDYWGQGTQVSSA
ratio to parent: 1.7
--
Binder: anti-minocycline single-domain antibody clone 1 (aMinoC1 sdAb) W58A (protein) QVQLESGGGLVQPGSSLRLSCAASGRTFSSYNIGWFRQAPKEREFVAAISASGARTYYADSVKGRFTISRDNAKNTVYLQMNSLKPEDTAVYSCAAGRGWGTEAILDYWGQGTQVSSA
ratio to parent: 1.06
--
Binder: anti-minocycline single-domain antibody clone 1 (aMinoC1 sdAb) R64A (protein) QVQLESGGGLVQPGSSLRLSCAASGRTFSSYNIGWFRQAPKEREFVAAISWSGAATYYADSVKGRFTISRDNAKNTVYLQMNSLKPEDTAVYSCAAGRGWGTEAILDYWGQGTQVSSA
ratio to parent: 1.15

Param item = anti-minocycline single-domain antibody clone 1 (aMinoC1 sdAb) S35A (protein) QVQLESGGGLVQPGSSLRLSCAASGRTFASYNIGWFRQAPKEREFVAAISWSGARTYYADSVKGRFTISRDNAKNTVYLQMNSLKPEDTAVYSCAAGRGWGTEAILDYWGQGTQVSSA ; retrieve measured ratio to parent.
0.97

Param item = anti-minocycline single-domain antibody clone 1 (aMinoC1 sdAb) A63S (protein) QVQLESGGGLVQPGSSLRLSCAASGRTFSSYNIGWFRQAPKEREFVAAISWSGSRTYYADSVKGRFTISRDNAKNTVYLQMNSLKPEDTAVYSCAAGRGWGTEAILDYWGQGTQVSSA ; retrieve measured ratio to parent.
0.77

Param item = anti-minocycline single-domain antibody clone 1 (aMinoC1 sdAb) R28A (protein) QVQLESGGGLVQPGSSLRLSCAASGATFSSYNIGWFRQAPKEREFVAAISWSGARTYYADSVKGRFTISRDNAKNTVYLQMNSLKPEDTAVYSCAAGRGWGTEAILDYWGQGTQVSSA ; retrieve measured ratio to parent.
1.28
